Target: FimH-CRD (Escherichia coli)
Construct: The first 177 amino acids of the FimH protein are expressed as a fusion protein; thrombin tag (printed as 'fusion protein with thrombin') (cleaved yes); made in house; host or cells: bacteria (pET21b plasmid)
Sequence (P08191 22-177): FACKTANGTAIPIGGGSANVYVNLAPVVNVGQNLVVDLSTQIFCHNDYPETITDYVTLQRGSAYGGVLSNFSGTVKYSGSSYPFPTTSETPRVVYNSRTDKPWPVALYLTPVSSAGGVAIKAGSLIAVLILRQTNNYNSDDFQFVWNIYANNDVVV
Assay: Competitive binding assay by fluorescence polarization, assay 1 (compounds prepared by manual dilution)
Set-up: species or system E. coli
Details: read-out: Assay 1 Kd, 5 nM Alexa 647 mannoside probe, 60 nM FimH-CRD, replicate values in one cell
pKd: −log10 of the molar value.

smiles str	system tested	pKd
OC[C@H]1O[C@H](c2ccc(-c3ccc([C@H]4O[C@H](CO)[C@@H](O)[C@H](O)[C@@H]4O)cc3)cc2)[C@@H](O)[C@@H](O)[C@@H]1O	FimH-CRD (Escherichia coli)	> 8.30
N#Cc1cc(/C=C/C[C@H]2O[C@H](CO)[C@@H](O)[C@H](O)[C@@H]2O)ccc1/C=C/C[C@H]1O[C@H](CO)[C@@H](O)[C@H](O)[C@@H]1O	FimH-CRD (Escherichia coli)	> 8.30
Cc1cc(/C=C/C[C@H]2O[C@H](CO)[C@@H](O)[C@H](O)[C@@H]2O)ccc1/C=C/C[C@H]1O[C@H](CO)[C@@H](O)[C@H](O)[C@@H]1O	FimH-CRD (Escherichia coli)	> 8.30
